The reported numbers originate from patent US20210347873A1.

- systemName: T1, human APRIL protein (human, UniProt O75888 105-250, limits assumed)
- T1 construct: Bought protein; also called recombinant APRIL protein
- T1 sequence (looked up): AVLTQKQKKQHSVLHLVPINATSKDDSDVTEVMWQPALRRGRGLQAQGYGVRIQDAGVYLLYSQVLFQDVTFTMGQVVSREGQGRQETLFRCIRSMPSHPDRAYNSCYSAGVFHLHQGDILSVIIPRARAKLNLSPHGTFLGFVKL
- assaySummary: ELISA, coated APRIL; antibody 0.534 nM
Listed binders paired with reported OD450 nm
readoutKind: OD450 nm

[[record]]
binder = "93C6F10D3 (antibody, V domains shown) VH: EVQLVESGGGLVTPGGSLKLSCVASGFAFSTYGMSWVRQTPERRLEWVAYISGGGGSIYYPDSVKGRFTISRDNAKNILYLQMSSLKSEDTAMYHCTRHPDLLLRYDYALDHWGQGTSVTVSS VL: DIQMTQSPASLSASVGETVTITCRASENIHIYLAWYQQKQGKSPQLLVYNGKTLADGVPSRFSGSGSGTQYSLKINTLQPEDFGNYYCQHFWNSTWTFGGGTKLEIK"
readoutkind = "OD450 nm"
endpointvalue = 0.0584

[[record]]
binder = "97E7B3F2 (antibody, V domains shown) VH: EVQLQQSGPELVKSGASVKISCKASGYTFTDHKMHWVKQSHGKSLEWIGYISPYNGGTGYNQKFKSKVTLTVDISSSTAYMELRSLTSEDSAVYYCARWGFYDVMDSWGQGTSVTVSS VL: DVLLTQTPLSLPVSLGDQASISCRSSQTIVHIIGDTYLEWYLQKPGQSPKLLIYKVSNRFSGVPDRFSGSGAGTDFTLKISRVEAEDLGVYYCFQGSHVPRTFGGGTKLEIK"
readoutkind = "OD450 nm"
endpointvalue = 0.0556

[[record]]
binder = "67A2E1D10 (antibody, V domains shown, Mouse hybridoma antibody purified on Protein G) VH: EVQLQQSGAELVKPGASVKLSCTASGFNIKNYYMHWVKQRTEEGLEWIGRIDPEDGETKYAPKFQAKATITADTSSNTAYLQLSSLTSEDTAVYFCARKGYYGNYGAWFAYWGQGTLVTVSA VL: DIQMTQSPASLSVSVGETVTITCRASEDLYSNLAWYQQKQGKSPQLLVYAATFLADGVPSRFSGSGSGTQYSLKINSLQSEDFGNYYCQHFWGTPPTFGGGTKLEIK"
readoutkind = "OD450 nm"
endpointvalue = 0.058

[[record]]
binder = "35E6F7C3 (antibody, V domains shown, Mouse hybridoma antibody purified on Protein G) VH: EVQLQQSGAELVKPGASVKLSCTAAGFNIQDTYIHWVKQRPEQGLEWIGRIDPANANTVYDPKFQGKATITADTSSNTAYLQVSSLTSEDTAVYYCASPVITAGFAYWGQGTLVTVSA VL: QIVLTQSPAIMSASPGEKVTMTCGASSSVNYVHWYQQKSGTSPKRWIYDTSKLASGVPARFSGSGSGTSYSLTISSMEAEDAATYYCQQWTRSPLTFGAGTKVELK"
readoutkind = "OD450 nm"
endpointvalue = 0.0544

[[record]]
binder = "89A2G5E7 (antibody, V domains shown, Mouse hybridoma antibody purified on Protein G) VH: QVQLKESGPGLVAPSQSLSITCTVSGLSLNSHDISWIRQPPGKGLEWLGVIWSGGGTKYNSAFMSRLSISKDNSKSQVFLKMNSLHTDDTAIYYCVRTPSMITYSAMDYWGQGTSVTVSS VL: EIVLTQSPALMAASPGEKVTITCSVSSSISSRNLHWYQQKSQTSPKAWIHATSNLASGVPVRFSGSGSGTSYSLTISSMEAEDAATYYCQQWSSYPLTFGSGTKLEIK"
readoutkind = "OD450 nm"
endpointvalue = 0.0565

